test system: SEM cells; assay: cell viability relative to DMSO control; higher = less cytotoxic; conditions: RPMI 5 mM glucose + 10% FBS; 48 h; 0.569 µM
Can you tell me cell viability for the items I'm about to list?

Each of the following entries comes with a recorded value; kindly state cell viability for each.
1. Nc1nc(Nc2ccc([S+](N)(=O)[O-])cc2)nn1C(=O)c1c(F)cccc1F
2. CC[C@H](NC(C)C)[C@H](O)c1ccc(O)c2[nH]c(=O)ccc12
3. CN(C)CC[C@H](CSc1ccccc1)Nc1ccc([S+](=O)([O-])NC(=O)c2ccc(N3CCN(Cc4ccccc4-c4ccc(Cl)cc4)CC3)cc2)cc1[N+](=O)[O-]
4. CCC[C@@H](C=O)NC(=O)[C@H](CC(C)C)NC(=O)[C@H](CC(C)C)NC(=O)OCc1ccccc1
5. C[N+](C)(C)CC(=O)O.[Cl-]
6. Oc1cc2c(cc1O)C1c3ccc(O)c(O)c3OCC1(O)C2 (stereo unspecified)
7. CC(C)(C)Cn1c(N)nc2ccc(-c3[nH]c(C(C)(C)C)nc3-c3ccc(F)cc3)nc21

stdout:
1: 100%; 2: 108%; 3: 11.1%; 4: 55.3%; 5: 96%; 6: 101%; 7: 54.1%

Each of the following entries comes with a recorded value; kindly state cell viability for each.
1. C/C(=C\c1csc(C)n1)[C@@H]1C[C@@H]2O[C@]2(C)CCC[C@H](C)[C@H](O)[C@@H](C)C(=O)C(C)(C)[C@@H](O)CC(=O)O1
2. COCCCOc1ccnc(C[S+]([O-])c2nc3ccccc3[nH]2)c1C (stereo unspecified)
3. NCCCC(O)(P(=O)(O)O)P(=O)(O)O.O.O.O.[Na+]

stdout:
1: 15.8%; 2: 78.6%; 3: 99.3%

Every entry's value here was drawn from the supplement of paper PMC11451515.
